system: HS 578T breast; assay: NCI tumour cell line growth inhibition, 48 h
PARAMETER: TGI

// worked examples, TGI included
COMPOUND: CCOC(=O)/C(C#N)=C/c1ccc2c(c1)CC1(C2)Cc2cc(CC)c(C(C)O)cc2C1 (centres undefined)
TEST_SYSTEM: HS 578T breast
TGI: 60.8 µM
--
COMPOUND: O=C1OC(CN2CCOCC2)CN1/N=C/c1ccc([N+](=O)[O-])o1 (centres undefined)
TEST_SYSTEM: HS 578T breast
TGI: > 100 µM
--
COMPOUND: COP(=O)(OC)/C(=C\c1cn(C(c2ccccc2)(c2ccccc2)c2ccccc2)cn1)NC(C)=O
TEST_SYSTEM: HS 578T breast
TGI: > 100 µM

Returns the measured TGI for the input compound. Input: "O=C1Oc2cc3c(c4cccc1c24)O[C@H](c1ccccc1)[C@@H](c1ccccc1)[C@@H]3c1ccc(Cl)cc1" > 100 µM

Returns the measured TGI for the input compound. Input: "CCOP(=O)(OCC)/C(C#N)=C/c1c[nH]c2ccccc12" > 100 µM

* * *

system: SK-MEL-28 melanoma; assay: NCI tumour cell line growth inhibition, 48 h
Measured TGI by item
Response body: numeric value in µM, unit text excluded.

// worked examples, TGI included
SMILES_REPRESENTATION: CC1=C(/C=C/C(C)=C/C=C/C(C)=C/CO)C(C)(C)CCC1
PARAMETER: TGI
RECORDED_MEASUREMENT: 48.5

SMILES_REPRESENTATION: COc1ccc(CCNCCCC2c3ccccc3-c3ccccc32)cc1OC
PARAMETER: TGI
RECORDED_MEASUREMENT: 23.1

SMILES_REPRESENTATION: Cc1cccc2c(N)c3ccccc3nc12
PARAMETER: TGI
RECORDED_MEASUREMENT: 6.53

SMILES_REPRESENTATION: Cc1c(C)c(S(=O)(=O)N(CCCCCON)OCCCN)c(C)c2c1OC(C)(C)CC2
PARAMETER: TGI
RECORDED_MEASUREMENT: 32.2

Returns the measured TGI for the input compound. Input: "c1ccc(CNc2nc(Nc3ccccc3)nc3ccccc23)cc1" 3.24

* * *

tested on: UO-31 renal
Classes to choose from: active, inactive

Example entries begin here.
SMILES_REPRESENTATION: Cc1c(Sc2ccccc2)[n+](=O)c2cc(Cl)c(Cl)cc2n1[O-]
CATEGORY: inactive

SMILES_REPRESENTATION: O=C(Nc1ccc(I)cc1F)c1cc(Cl)ccc1O
CATEGORY: active

SMILES_REPRESENTATION: Cc1nc(Nc2nc3ccccc3o2)nc(-c2cccc([N+](=O)[O-])c2)c1C(=O)Nc1ccc(F)c(Cl)c1
CATEGORY: inactive

SMILES_REPRESENTATION: Oc1ccc(Cl)cc1CNc1nc2ccccc2[nH]1
CATEGORY: inactive

SMILES_REPRESENTATION: CO[C@H]1CC(c2ccc[nH]2)=N[C@]12O[C@@H](C)C[C@@H]1CCCCCCCc3ccc([nH]3)[C@H]12
CATEGORY: inactive

SMILES_REPRESENTATION: Cn1c(=O)c(Oc2ccc(F)cc2F)cc2cnc(NCCS(C)(=O)=O)nc21
CATEGORY: inactive

SMILES_REPRESENTATION: c1ccc(CNc2nc(Nc3ccccc3)nc3ccccc23)cc1
CATEGORY: inactive

SMILES_REPRESENTATION: CC(C)CCN[C@@H]1CCc2cc(O)c(N3CC(=O)NS3(=O)=O)c(F)c2C1
CATEGORY: inactive

Dear colleague, could you share the recorded outcome for "N#Cc1cc(S(=O)(=O)Nc2nc3ccccc3s2)c(SCc2ccccc2)cc1Cl" when you have a moment? inactive

* * *

tested on: HCT-116 colon; experiment: NCI tumour cell line growth inhibition, 48 h
Measured TGI by item

// worked examples, TGI included
COMPOUND: c1ccc2cc3c(cc2c1)nc1ccccn13
RECORDED_MEASUREMENT: > 100 µM
--
COMPOUND: CC(C)c1cc(OCC(O)CO)cc(C(C)C)c1 (configuration not stated)
RECORDED_MEASUREMENT: > 100 µM
--
COMPOUND: COc1cc2c(c(OC3OC(CO)C(O)C(O)C3O)c1)C(=O)CC(c1ccc(O)cc1)O2 (configuration not stated)
RECORDED_MEASUREMENT: > 100 µM
--
COMPOUND: O=C1NC(=O)C2C1N(Cc1ccccc1)C(=O)N2Cc1ccccc1 (configuration not stated)
RECORDED_MEASUREMENT: > 100 µM
--
COMPOUND: COc1ccc(CCc2nccn2C)cc1OC
RECORDED_MEASUREMENT: > 100 µM

Returns the measured TGI for the input compound. Input: "O=C(CCN1CCOCC1)C(=Cc1ccccc1)C(=O)CCN1CCOCC1" 5.5 µM

Returns the measured TGI for the input compound. Input: CCCCCCC(/C=N/O)C(C)(O)CCC (configuration not stated) > 100 µM

Returns the measured TGI for the input compound. Input: CCOC(OC1=C(C#N)CCCC1)C(C)[Se]c1ccccc1 (configuration not stated) > 100 µM

Returns the measured TGI for the input compound. Input: "Nc1n[nH]c(CCc2nc(N)n[nH]2)n1" > 100 µM

Returns the measured TGI for the input compound. Input: "COc1ccc2c(c1OC)C(=O)c1cnccc1C2=O" > 100 µM

Returns the measured TGI for the input compound. Input: CCOC(=O)/C(C#N)=C/c1ccc2c(c1)CC1(C2)Cc2cc(CC)c(C(C)O)cc2C1 (configuration not stated) 15 µM

Returns the measured TGI for the input compound. Input: "CCc1nc(N)nc(N)c1-c1ccc(Cl)c(N=CN(C)C)c1" > 100 µM

* * *

system: U251 CNS; assay: NCI tumour cell line growth inhibition, 48 h
PARAMETER: log10 of TGI (log10 of the value in µM)
All values: base-10 log of TGI in µM.

COMPOUND: c1ccc2c(c1)C1=NCCN1c1ccccc1-2
RECORDED_MEASUREMENT: 1.15

Then there is this compound:
Lookup: log10 of TGI / U251 CNS / C=CCCCc1ccc(C(O)CCCCCCCCCCCC)o1 (stereo not drawn) 1.46

* * *

For HOP-62 NSCLC, measured GI50 is reported for the entries below.

// worked examples, GI50 included
SMILES_REPRESENTATION: Cc1cc(OCc2nnc3n2N=C(c2ccc(Cl)cc2Cl)CS3)ccc1Cl
RECORDED_MEASUREMENT: > 100 µM
//
SMILES_REPRESENTATION: COc1cc(/C=C/C(=O)c2cccnc2Nc2ccc(F)cc2)cc(OC)c1OC
RECORDED_MEASUREMENT: 2.9 µM
//
SMILES_REPRESENTATION: CN(C)CCN1C(=O)c2cccc3cccc(c23)C1=O
RECORDED_MEASUREMENT: > 25 µM

Returns the measured GI50 for the input compound. Input: "CC1(C)OC(=O)C=C([O-])O1.CC1(C)OC(=O)C=C([O-])O1.CC[O-].CC[O-].[Ti+4]" > 100 µM

* * *

Measured TGI by item
test system: TK-10 renal; assay: NCI tumour cell line growth inhibition, 48 h

// worked examples, TGI included
MOLECULE: N#Cc1c(N2CCOCC2)[nH]c(=O)c(C(c2c(Cl)cccc2Cl)c2c(O)c(C#N)c(N3CCOCC3)[nH]c2=O)c1O
TGI: 32.5 µM

MOLECULE: CC(C)C(NC(=O)C(Cc1ccccc1)NC(=O)[C@H]1CCC[C@H]1NC(=O)C(N)Cc1ccc(O)cc1)C(N)=O (some centres not stated)
TGI: > 100 µM

MOLECULE: O=C1C=CC(CC(=O)c2ccc3ccccc3c2)O1 (configuration not stated)
TGI: 69.8 µM

MOLECULE: Oc1ccc(Cl)cc1CNc1nc2ccccc2[nH]1
TGI: 31.2 µM

Returns the measured TGI for the input molecule. Input: "Cc1cc(OCc2nnc3n2N=C(c2ccc(Cl)cc2Cl)CS3)ccc1Cl" > 100 µM

Returns the measured TGI for the input molecule. Input: C=C(C)C12CC3CC/C(=N/O)C(C1)C3(N1CCOCC1)C/C2=N/O (configuration not stated) > 100 µM

Returns the measured TGI for the input molecule. Input: O=[N+]([O-])c1cccc(C2=NOC3C4CCC(C4)C23)c1 (configuration not stated) > 100 µM

Returns the measured TGI for the input molecule. Input: "CCc1nc(N)nc(N)c1-c1ccc(Cl)c(N=CN(C)C)c1" > 100 µM

Returns the measured TGI for the input molecule. Input: CC(C)C(NCc1c(O)ccc2c(-c3ccccc3)cc(=O)oc12)C(=O)O (configuration not stated) > 100 µM

Returns the measured TGI for the input molecule. Input: "CC1(C)O[C@@H](CBr)C[C@H](C[C@H]2C[C@@H](O)C[C@@H](CCOCc3ccccc3)O2)O1" 38.3 µM

Returns the measured TGI for the input molecule. Input: "Nn1c(N=Nc2c(O)[nH]c3c(Cl)cc(Cl)cc23)n[nH]c1=S" > 100 µM

Returns the measured TGI for the input molecule. Input: "CCCNc1nc2ccccc2c2c1S(=O)(=O)c1ccc(Cl)cc1C2=O" > 50 µM
